Assay: Headspace above the fresh gel room air freshener: relative partition parameter (SPME-GC)
Format: physicochemical
Conditions: log of amount in headspace relative to amount in gel; 5% odorant mixture, 10 liter vessel, 1 h, SPME 15 min
quantity_kind: Activity (logarithmic partition parameter above gel room air fresheners)

Consider the reported Activity (logarithmic partition parameter above gel room air fresheners) for these molecules:
molecule	data_value
C=CC(C)CCCC(C)(C)O (stereo not drawn) [Dihydromyrcenol]	0.460
CC(=O)/C=C/C1C(C)=CCCC1(C)C (stereo not drawn)	−0.515
CCOC(=O)c1ccccc1C(=O)OCC [Diethyl phthalate]	−2.303
OCc1ccccc1	0.148
CC(=O)OC(C)(C)C1CC=C(C)CC1 (stereo not drawn) [Terpinyl acetate]	−0.029

(a) C=C1C2CCC(C2)C1(C)C (stereo not drawn)
(b) CC(C=O)Cc1ccc(C(C)(C)C)cc1 (stereo not drawn)
input: Pick the one with the larger Activity (logarithmic partition parameter above gel room air fresheners): a vs b Provide the label of your selected option as the answer.
output: a
(a: −0.116, b: −1.548)

(P) CC(=O)O[C@@H]1C[C@H]2CC[C@]1(C)C2(C)C (racemic) [Isobornyl acetate]
(Q) C=CCc1ccc(O)c(OC)c1
input: Of P and Q , which one carries the higher reported Activity (logarithmic partition parameter above gel room air fresheners)? Please identify the chosen entry by its label.
output: P

(a) CC(=O)/C=C/C1=C(C)CCCC1(C)C
(b) CC(=O)OCC=C(C)C [Prenyl acetate]
(c) OCCc1ccccc1
input: # ascending order, key=Activity (logarithmic partition parameter above gel room air fresheners) // respond by listing labels in the order requested
output: a, c, b
(a: −0.662, c: 0.245, b: 0.674)

(1) CC(C)=CCC/C(C)=C/CO
(2) CC(C)=CCCC(C)CCO (stereo not drawn)
input: Pick one, 1 or 2 : lowest reported Activity (logarithmic partition parameter above gel room air fresheners). // output: label of the selected item
output: 1
(1: −0.365, 2: −0.158)
